Data origin, for the record: PubChem BioAssay (NCI)

# Tested on: SK-MEL-5 melanoma
# measurementDescription: NCI tumour cell line growth inhibition, 48 h
Listing: TGI of selected compounds

Examples with answers:
chemicalSmiles | TGI
CC1C2=C(CC(C)(C)CC2=O)NC2=C1C(=O)CC(C)(C)C2 | > 100 µM
COc1cccc(/C(CC(O)(C(F)(F)F)C(F)(F)F)=N\N(C)C)c1 | > 100 µM
NC(=O)c1cc(-c2ccncc2)cc(-c2ccccc2)c1N | > 25 µM

Notebook: O=C(CCCn1c(=O)c2sc3ccccc3c2n2nnc(-c3ccccc3)c12)NCCc1cnc[nH]1 , TGI read as 4.11 µM

---

# Tested on: KM12 colon
# measurementDescription: NCI tumour cell line growth inhibition, 48 h; in the data active = GI50 below about 0.43 µM; inactive = the rest
A correct response names exactly one class from active, inactive

compound | classLabel
COc1cc(/C=N/Nc2ncnc3c2cnn3C(C)C)ccc1O | inactive
Oc1c(C(Nc2cccc3ccccc23)c2ccccc2)ccc2cccnc12 (stereo not given) | inactive
Cn1cc(C2=C(c3c4n(c5ccccc35)CCCC4)C(=O)NC2=O)c2ccccc21 | inactive
CCN(CC)C(=O)CC1=C(C)/C(=C/c2[nH]c(-c3ccc[nH]3)cc2OC)N=C1C | active
COc1cccc(C(=O)Nc2ccc(CN3CCc4nc5cc(OC)c(OC)cc5cc43)cc2)c1 | inactive

In this assay, the call recorded for C=CCn1c(=O)c2cnc(Nc3ccc(N4CCN(C)CC4)cc3)nc2n1-c1ccc2c(n1)[C@@](O)(CC)CC2 was what?
active

In this assay, the call recorded for O=C(COc1ccc(/C=C2\Oc3ccccc3C2=O)cc1)Nc1nccs1 was what?
inactive

---

# System: M14 melanoma
# measurementDescription: NCI tumour cell line growth inhibition, 48 h
measure: TGI (µM)
The figure you give is taken to be in µM; do not add the unit.

Examples with answers:
chemicalSmiles | observedMeasurement
CCCCN(CCCC)c1ccc(C(=N)c2ccc(N(C)C)cc2)cc1 | 2.25
CN1CCN(CCCOc2cccc3nc(Nc4ccc(Cl)c(F)c4)ccc23)CC1 | 3.37
CC1=C(C)C(=O)C2=C(OCCCO2)C1=O | 30.7

In the following, a different compound is considered.
Notebook: CO[C@H]1[C@@H](O)[C@@H](C)O[C@@H](O[C@H]2CC[C@@]3(C)[C@H](CC[C@@H]4[C@@H]3CC[C@]3(C)[C@@H](C5=CC(=O)OC5)CC[C@]43O)C2)[C@@H]1O , TGI read as 0.0479

---

# Test system: IGROV1 ovarian
# measurementDescription: NCI tumour cell line growth inhibition, 48 h
measure: TGI (µM)
The figure you give is taken to be in µM; do not add the unit.

compound | TGI (µM)
Cc1c(C)c2c(c(C)c1NC(=O)/C=C\C(=O)O)CCC(C)(CCCC(C)CCCC(C)CCCC(C)C)O2 (stereo unspecified) | 4.88
O=C(/C=C/c1ccccc1)c1c[nH]c2ccccc2c1=O | 16.4

In the following, a different compound is considered.
Notebook: N=Nc1c(OC(=O)Nc2ccccc2)[nH]c2ccccc12 , TGI read as 42.2

---

# Test system: HCT-15 colon
# measurementDescription: NCI tumour cell line growth inhibition, 48 h
Listing: GI50 of selected compounds

Notebook: COC1C(O)C(C)OC(OC2C(Oc3cccc4c(O)c5c(=O)oc6ccc(C)c7c(=O)oc(c34)c5c67)OC(C)C3O[C@H](c4ccccc4)OC32)C1O (some centres undefined) , GI50 read as 0.516 µM

Notebook: Cc1cc(Cc2cc(C)c(O)c(C)c2)cc(C)c1O , GI50 read as 3.49 µM

Notebook: O=C(/C=C/C12c3ccccc3C(c3ccccc31)C1C(=O)N(c3ccccc3)C(=O)C12)c1ccc(Cl)cc1 (centres undefined) , GI50 read as 1.19 µM

Notebook: CC(=O)[CH-]C(=O)c1ccccc1.CC(=O)[CH-]C(=O)c1ccccc1.COc1cccc([O-])c1[O-].[Ti+4] , GI50 read as 50.2 µM

Notebook: COc1cc(-c2nn(-c3ccc(NC(=O)Nc4ccc(Cl)c(Cl)c4)cc3)cc2-c2ccncc2)ccc1Cl , GI50 read as 2.88 µM

Notebook: Cc1oc2nc[nH]c(=O)c2c1C(=O)/C=C/c1ccc(Cl)cc1 , GI50 read as 1.29 µM

Notebook: Cc1csc(/C=N/NC(=O)c2nnn(-c3ccnc4c(C(F)(F)F)cccc34)c2C)c1 , GI50 read as 36.9 µM

Notebook: CC1=CC[C@@H]2C(C)(C)C(=O)CC[C@@]2(C)[C@@H]1COc1ccc2ccc(=O)oc2c1 , GI50 read as 13.4 µM

Notebook: CN(Cc1cnc(N)nc1N)c1ccc(C(=O)O)cc1 , GI50 read as > 100 µM
